# experimentalProtocol: Preliminary pharmacokinetics in male Wistar rats, plasma and brain
# Type: in vivo
# details: male, Wistar; rat, 3 mg/kg intravenous, plasma
endpointLabel: AUC(0-t) (ng·h/mL)
A number alone suffices; assume ng·h/mL.

# lookup: AUC(0-t) of Cl.Clc1cccc(Cn2ccc3c(N4CCNCC4)nc4ccccc4c32)c1 [PZ-1922] 467

---

# experimentalProtocol: Preliminary pharmacokinetics in male Wistar rats, plasma and brain
# Format: in vivo
# details: male, Wistar, po; rat, 3 mg/kg intragastric, plasma
endpointLabel: Tmax (h)
A number alone suffices; assume h.

# lookup: Tmax of Cl.Clc1cccc(Cn2ccc3c(N4CCNCC4)nc4ccccc4c32)c1 2
